Assignment: determine reported relative viability for the given molecules.
Tested on: NCI-H650
assay.details: relative viability (nuclei count vs DMSO), 5 days (fraction); higher = more cells survive
assay.context: first compound 0.1581 µM

Request: I have this molecule here, COc1cc2nccc(Oc3ccc(NC(=O)Nc4cc(C)on4)c(Cl)c3)c2cc1OC [Tivozanib] + Nc1nc2[nH]cc(CCc3ccc(C(=O)N[C@@H](CCC(=O)O)C(=O)O)cc3)c2c(=O)[nH]1 [Pemetrexed] (partner 0.2 µM) , and I need its recorded relative viability.
Result: 0.679

Request: Similarly, Nc1ccn([C@@H]2O[C@H](CO)[C@@H](O)[C@@H]2O)c(=O)n1 [Cytarabine] + Cc1nc(NC(=O)N2CCC[C@H]2C(N)=O)sc1-c1ccnc(C(C)(C)C(F)(F)F)c1 [Alpelisib] (partner 2 µM) ?
Result: 0.218

Request: Similarly, Nc1ccn([C@@H]2O[C@H](CO)[C@@H](O)[C@@H]2O)c(=O)n1 [Cytarabine] + CCNC(=O)c1noc(-c2cc(C(C)C)c(O)cc2O)c1-c1ccc(CN2CCOCC2)cc1 [Luminespib] (partner 0.01 µM) ?
Result: 0.187

Request: Similarly, Nc1ccn([C@@H]2O[C@H](CO)[C@@H](O)[C@@H]2O)c(=O)n1 [Cytarabine] + CS(=O)(=O)N1CCN(Cc2cc3nc(-c4cccc5[nH]ncc45)nc(N4CCOCC4)c3s2)CC1 [Pictilisib] (partner 1 µM) ?
Result: 0.224

Request: Similarly, COc1cc2nccc(Oc3ccc(NC(=O)Nc4cc(C)on4)c(Cl)c3)c2cc1OC [Tivozanib] + CC(=O)Nc1cccc(-n2c(=O)n(C3CC3)c(=O)c3c(Nc4ccc(I)cc4F)n(C)c(=O)c(C)c32)c1 [Trametinib] (partner 0.02 µM) ?
Result: 0.97

Request: Similarly, Nc1ccn([C@@H]2O[C@H](CO)[C@@H](O)[C@@H]2O)c(=O)n1 [Cytarabine] + NC(=O)Nc1cc(-c2cccc(F)c2)sc1C(=O)N[C@H]1CCCNC1 [AZD7762] (partner 0.2 µM) ?
Result: 0.146

Request: Similarly, Nc1ccn([C@@H]2O[C@H](CO)[C@@H](O)[C@@H]2O)c(=O)n1 [Cytarabine] + COc1cc2c(Oc3ccc(NC(=O)C4(C(=O)Nc5ccc(F)cc5)CC4)cc3F)ccnc2cc1OCCCN1CCOCC1 [Foretinib] (partner 0.25 µM) ?
Result: 0.283

Request: Similarly, Nc1ccn([C@@H]2O[C@H](CO)[C@@H](O)[C@@H]2O)c(=O)n1 [Cytarabine] + Nc1ncn([C@H]2C[C@H](O)[C@@H](CO)O2)c(=O)n1 [Decitabine] (partner 2 µM) ?
Result: 0.152

Request: Similarly, Nc1ccn([C@@H]2O[C@H](CO)[C@@H](O)[C@@H]2O)c(=O)n1 [Cytarabine] + Cc1nc(Nc2ncc(C(=O)Nc3c(C)cccc3Cl)s2)cc(N2CCN(CCO)CC2)n1 [Dasatinib] (partner 0.075 µM) ?
Result: 0.213
